# study-target: BaF3 PIM1 cells (Homo sapiens, UniProt P11309)
# Sequence (P11309 whole entry, change not shown): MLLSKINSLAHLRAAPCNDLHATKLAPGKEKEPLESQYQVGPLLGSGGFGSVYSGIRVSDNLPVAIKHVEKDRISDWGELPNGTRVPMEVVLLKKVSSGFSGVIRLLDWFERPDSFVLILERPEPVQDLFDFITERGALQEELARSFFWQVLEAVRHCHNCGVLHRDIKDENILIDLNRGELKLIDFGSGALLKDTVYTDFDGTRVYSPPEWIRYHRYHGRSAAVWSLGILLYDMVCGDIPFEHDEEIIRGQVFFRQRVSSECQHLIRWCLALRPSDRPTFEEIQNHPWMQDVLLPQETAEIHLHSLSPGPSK
# test-summary: BaF3 PIM1 cell proliferation (Cell Titer Glo)
# Assay type: cell-based
# test-settings: incubated overnight; read-out: Prolif BaF3_PIM1 (IC50)
observation-type: GI50 (nM)

Some entries whose results are on file:
compound="Nc1sc(-c2c(F)cccc2F)nc1C(=O)Nc1cnccc1N1CCC[C@H](O)C1 [Example 52]" assay_result=2200
compound="N[C@H]1CCCN(c2ccncc2NC(=O)c2csc(-c3ccccc3F)n2)C1 [Example 45]" assay_result=613
compound="Nc1sc(Cc2ccccc2)nc1C(=O)Nc1cnccc1N1CCC[C@H](N)C1 [Example 38]" assay_result=3200

[A] Nc1sc(-c2ccc(F)cc2F)nc1C(=O)Nc1cnccc1N1CCC[C@H](N)C1 [Example 42]
[B] Nc1sc(C2CCCCC2)nc1C(=O)Nc1cnccc1N1CCC[C@H](N)C1 [Example 37]
Hello, I am sorting some records. Could you say if A or B has the smaller GI50 value? To answer, give the label that identifies your chosen option.
A
(A: 30.4 nM, B: 2200 nM)

###

# study-target: BaF3 PIM1 cells (Homo sapiens, UniProt P11309)
# test-summary: BaF3 PIM1 cell proliferation (Cell Titer Glo)
# Type: cell-based
# test-settings: incubated overnight; read-out: Prolif BaF3_PIM1 (IC50)
observation-type: GI50 (nM)

compound_structure_string=CCCOc1ccc(F)c(-c2nc(C(=O)Nc3cnccc3N3CCC[C@H](N)C3)c(N)s2)c1F study_target="BaF3 PIM1 cells (Homo sapiens, UniProt P11309)" quantity_unit=nM assay_result=75.7

[a] COc1ccc(-c2nc(C(=O)Nc3cnccc3N3CCC[C@H](N)C3)c(N)s2)c(F)c1
[b] CC(C)(C)c1nc(C(=O)Nc2cnccc2N2CCC[C@H](N)C2)c(N)s1
[c] COc1ccccc1-c1nc(C(=O)Nc2cnccc2N2CCC[C@H](N)C2)c(N)s1
[d] Cc1ccc(-c2nc(C(=O)Nc3cnccc3N3CCC[C@H](N)C3)c(N)s2)cc1
[e] Nc1sc(Cc2ccccc2)nc1C(=O)Nc1cnccc1N1CCC[C@H](NC(=O)C(F)(F)F)C1
Hey, can you sort those compounds up there by GI50, smallest first? Kindly provide the labels arranged according to the requested ordering.
a, d, c, b, e

###

For PIM1 (Homo sapiens), measured Ki is reported for the entries below.
observation-type: Ki (nM)

compound_structure_string=N[C@H]1CCCN(c2ccncc2NC(=O)c2csc(-c3ccccc3)n2)C1 study_target="PIM1 (Homo sapiens)" assay_result=1.33
compound_structure_string=Nc1sc(C2CCCCC2)nc1C(=O)Nc1cnccc1N1CCC[C@H](N)C1 study_target="PIM1 (Homo sapiens)" assay_result=1.14
compound_structure_string=Nc1sc(-c2cnc3ccccn23)nc1C(=O)Nc1cnccc1N1CCC[C@H](N)C1 study_target="PIM1 (Homo sapiens)" assay_result=0.11
compound_structure_string=Nc1sc(-c2ccccc2OC(F)(F)F)nc1C(=O)Nc1cnccc1N1CCC[C@H](N)C1 study_target="PIM1 (Homo sapiens)" assay_result=1.93
compound_structure_string=Nc1sc(-c2ccccc2)nc1C(=O)Nc1cccnc1 study_target="PIM1 (Homo sapiens)" assay_result=36.7
compound_structure_string=Nc1sc(-c2cn[nH]c2)nc1C(=O)Nc1cnccc1N1CCC[C@H](N)C1 study_target="PIM1 (Homo sapiens)" assay_result=0.115

[I] Cc1ccccc1-c1nc(C(=O)Nc2cnccc2N2CCC[C@H](N)C2)c(N)s1
[II] Nc1sc(-c2ccc3nccn3c2)nc1C(=O)Nc1cnccc1N1CCC[C@H](N)C1
So which one has the bigger Ki here, I or II ? To answer, give the label that identifies your chosen option.
II

[P] Nc1sc(-c2cc(Br)ccc2Cl)nc1C(=O)Nc1cnccc1N1CCC[C@H](N)C1
[Q] Nc1sc(-c2ccccc2F)nc1C(=O)Nc1cnccc1N1CCC[C@H](N)C1
[R] Nc1sc(-c2c(F)cccc2F)nc1C(=O)Nc1cnccc1N1C[C@@H](N)C[C@@H](F)C1
[S] Cc1cccc(C)c1-c1nc(C(=O)Nc2cnccc2N2CCC[C@H](N)C2)c(N)s1
[T] Nc1sc(-c2cc[nH]n2)nc1C(=O)Nc1cnccc1N1CCC[C@H](N)C1
Task field, ranking: reported Ki, descending order. Kindly provide the labels arranged according to the requested ordering.
S, R, T, P, Q

###

# study-target: BaF3 PIM1 cells (Homo sapiens)
# test-summary: BaF3 PIM1 cell proliferation (Cell Titer Glo)
# Type: cell-based
# test-settings: incubated overnight; read-out: Prolif BaF3_PIM1 (IC50)
observation-type: GI50 (nM)

compound="Nc1sc(-c2cn[nH]c2)nc1C(=O)Nc1cnccc1N1CCC[C@H](N)C1 [Example 56]" observation_type=GI50 assay_result=1500

[1] Nc1sc(C2CCCC2)nc1C(=O)Nc1cnccc1N1CCC[C@H](N)C1 [Example 60]
[2] N[C@H]1CCCN(c2ccncc2NC(=O)c2csc(-c3ccccc3)n2)C1 [Example 48]
[3] Nc1sc(-c2cc(F)ccc2F)nc1C(=O)Nc1cnccc1N1CCC[C@H](N)C1 [Example 41]
Hey, can you sort those compounds up there by GI50, smallest first? Kindly provide the labels arranged according to the requested ordering.
3, 1, 2
(3: 69 nM, 1: 465 nM, 2: 1400 nM)

###

# study-target: BaF3 PIM1 cells (Homo sapiens)
# test-summary: BaF3 PIM1 cell proliferation (Cell Titer Glo)
# Assay type: cell-based
# test-settings: incubated overnight; read-out: Prolif BaF3_PIM1 (IC50)
observation-type: GI50 (µM)

Some entries whose results are on file:
molecule="Nc1sc(-c2cc[nH]n2)nc1C(=O)Nc1cnccc1N1CCC[C@H](N)C1 [Example 51]" observation_type=GI50 assay_result=0.197
molecule="Cc1ccccc1-c1nc(C(=O)Nc2cnccc2N2CCC[C@H](N)C2)c(N)s1 [Example 40]" observation_type=GI50 assay_result=0.164
molecule="Nc1sc(-c2c(F)cccc2F)nc1C(=O)Nc1cnccc1N1C[C@@H](N)C[C@@H](F)C1 [Example 63]" observation_type=GI50 assay_result=3.4
molecule="Cc1nc(C(=O)Nc2cnccc2N2CCC[C@H](N)C2)c(N)s1 [Example 8]" observation_type=GI50 assay_result=0.713

[I] Nc1sc(-c2cc(Br)ccc2F)nc1C(=O)Nc1cnccc1N1CCC[C@H](N)C1 [Example 4]
[II] Nc1sc(-c2ccccc2F)nc1C(=O)Nc1cnccc1N1CCC[C@H](N)C1 [Example 1]
[III] Nc1sc(-c2c(F)cccc2F)nc1C(=O)Nc1cnccc1N1CCC[C@H](N)C1 (single isomer, unassigned) [Example 25]
Hey, can you sort those molecules up there by GI50, smallest first? Kindly provide the labels arranged according to the requested ordering.
II, I, III
(II: 0.0332 µM, I: 0.0558 µM, III: 1.5 µM)

###

# study-target: BaF3 PIM1 cells (Homo sapiens)
# test-summary: BaF3 PIM1 cell proliferation (Cell Titer Glo)
# Format: cell-based
# test-settings: incubated overnight; read-out: Prolif BaF3_PIM1 (IC50)
observation-type: GI50 (nM)

Some entries whose results are on file:
molecule="Nc1sc(-c2ccccn2)nc1C(=O)Nc1cnccc1N1CCC[C@H](N)C1 [Example 9]" quantity_unit=nM assay_result=68.8
molecule="NC(=O)c1cccc(-c2nc(C(=O)Nc3cnccc3N3CCC[C@H](N)C3)c(N)s2)c1 [Example 22]" quantity_unit=nM assay_result=520
molecule="Nc1sc(-c2cccnc2)nc1C(=O)Nc1cnccc1N1CCC[C@H](N)C1 [Example 11]" quantity_unit=nM assay_result=607
molecule="Cc1cccc(C)c1-c1nc(C(=O)Nc2cnccc2N2CCC[C@H](N)C2)c(N)s1 [Example 54]" quantity_unit=nM assay_result=7800
molecule="COc1cc(F)c(-c2nc(C(=O)Nc3cnccc3N3CCC[C@H](N)C3)c(N)s2)c(F)c1 [Example 34]" quantity_unit=nM assay_result=19.1

[P] Nc1sc(-c2c(F)cccc2F)nc1C(=O)Nc1cnccc1N1CCC[C@H](N)C1 [Example 3]
[Q] CCNC(=O)Nc1ccc(-c2nc(C(=O)Nc3cnccc3N3CCC[C@H](N)C3)c(N)s2)cc1 [Example 32]
So which one has the bigger GI50 here, P or Q ? To answer, give the label that identifies your chosen option.
Q
(Q: 1700 nM, P: 13.5 nM)

###

For PIM1 (Homo sapiens, UniProt P11309), measured Ki is reported for the entries below.
observation-type: Ki (nM)

compound_structure_string=COc1ccccc1-c1nc(C(=O)Nc2cnccc2N2CCC[C@H](N)C2)c(N)s1 study_target="PIM1 (Homo sapiens, UniProt P11309)" assay_result=0.306
compound_structure_string=Nc1sc(-c2cccc(F)c2F)nc1C(=O)Nc1cnccc1N1CCC[C@H](N)C1 study_target="PIM1 (Homo sapiens, UniProt P11309)" assay_result=0.061
compound_structure_string=Cc1nc(C(=O)Nc2cnccc2N2CCC[C@H](N)C2)c(N)s1 study_target="PIM1 (Homo sapiens, UniProt P11309)" assay_result=3.47

[A] CC(C)Oc1ccc(F)c(-c2nc(C(=O)Nc3cnccc3N3CCC[C@H](N)C3)c(N)s2)c1F
[B] Nc1[nH]c(-c2ccccc2)nc1C(=O)Nc1cnccc1N1CCC[C@H](N)C1
Hello, I am sorting some records. Could you say if A or B has the smaller Ki value? To answer, give the label that identifies your chosen option.
A
(A: 0.058 nM, B: 1200 nM)
